Target: NADPH oxidase 4 (Homo sapiens) (UniProt Q9NPH5)
Sequence (Q9NPH5 whole entry, looked up): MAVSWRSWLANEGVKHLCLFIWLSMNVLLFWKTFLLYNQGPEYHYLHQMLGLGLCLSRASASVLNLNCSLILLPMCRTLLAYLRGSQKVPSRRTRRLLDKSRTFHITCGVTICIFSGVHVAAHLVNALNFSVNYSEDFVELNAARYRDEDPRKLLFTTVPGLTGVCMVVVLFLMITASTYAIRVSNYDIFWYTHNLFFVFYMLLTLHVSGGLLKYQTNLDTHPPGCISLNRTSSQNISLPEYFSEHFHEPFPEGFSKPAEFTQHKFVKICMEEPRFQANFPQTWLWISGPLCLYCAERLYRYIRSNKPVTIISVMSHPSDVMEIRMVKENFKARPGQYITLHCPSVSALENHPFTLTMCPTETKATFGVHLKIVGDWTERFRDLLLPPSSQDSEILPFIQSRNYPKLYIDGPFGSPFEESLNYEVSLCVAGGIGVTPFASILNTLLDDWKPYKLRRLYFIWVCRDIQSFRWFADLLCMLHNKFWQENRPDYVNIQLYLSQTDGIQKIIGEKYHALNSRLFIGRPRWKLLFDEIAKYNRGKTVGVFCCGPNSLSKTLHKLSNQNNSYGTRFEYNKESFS
Assay: NOX4-dependent H2O2 signal modulators, primary screen, NOX inhibitor project, cell-based, HEK293-NOX4, tetracycline-induced, Amplex Red fluorescence (AID 1160)
Conditions: 45 min, higher = more signal, called active from +8 up or from −8 down
parameter: z-score

> print(dat)
                                   molecule                           target.of.assay  experimental.result
1  O=C1OCC=C[C@H]2OC34C=CCN(c5ccc6ccccc6c5)C(=O)[C@H]3N(CCCCCO)C(=O)[C@@H]4[C@@H]12 (some centres undefined)  NADPH oxidase 4 (Homo sapiens) (UniProt Q9NPH5)                0.056
2  O=C(CS)NCCCCCCNC(=O)[C@@H]1C[C@@H]2C(=O)NCC(=O)N2[C@@H]1c1ccc(O)cc1  NADPH oxidase 4 (Homo sapiens) (UniProt Q9NPH5)                0.147
3  COc1cccc(/C=C(\C#N)C(=O)Nc2c(C)n(C)n(-c3ccccc3)c2=O)c1  NADPH oxidase 4 (Homo sapiens) (UniProt Q9NPH5)                0.139
4  Cc1ccc(S[C@]2(C(=O)NCc3ccccc3)CC(=O)N(Cc3cc(C(F)(F)F)cc(C(F)(F)F)c3)[C@@H]2c2ccc(CO)cc2I)cc1  NADPH oxidase 4 (Homo sapiens) (UniProt Q9NPH5)                -1.24

====

Entries and their z-score values follow.
Experiment: mitochondrial membrane potential change in A549 cells, profiling panel, cell-based, JC-1 fluorescence, basal, 24 h, 100 nL (AID 1138);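 note: A549 lung adenocarcinoma cells under basal conditions with no added stimulus; test concentration not given here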
Conditions: higher = more signal
parameter: z-score

> print(dat)
                                   compound  experimental.result
1  C=CCN1C(=O)[C@]2(O[C@H](CCO)[C@@H]([Si](C)(C)c3ccc(OC)cc3)[C@@H]2C)c2cc(NC(=O)c3ccc(OC)cc3)ccc21                   -1
2  COC(=O)[C@@]1(Cc2ccc(F)cc2)[C@H]2c3cc(C(=O)N(C)C)n(Cc4c(CO)[nH]cc(C)c4=O)c3C[C@H]2CN1C(=O)c1ccccc1                0.932
3  [N-]=[N+]=NCc1ccccc1[C@@H]1OC(c2ccc(OCCCO)cc2)=N[C@]1(Cc1ccccc1N=[N+]=[N-])C(=O)N1CCCCC1                0.909
4  O=C1C2C=CC(C(O)c3cc(C(F)(F)F)cc(C(F)(F)F)c3)N(Nc3ccccc3F)C2C(=O)N1c1ccccc1 (centres undefined)                -1.58

====

Target: NADPH oxidase 5 (Homo sapiens)
Experiment: NOX5-dependent H2O2 signal modulators, primary screen, NOX inhibitor project, cell-based, HEK293-NOX5, Amplex Red fluorescence (AID 1161)
Conditions: HEK293-NOX5, ionomycin, 45 min, higher = more signal
Please mark Met if the recorded z-score is equal to or greater than 0.1, and Not met if it falls below.

compound	label
COCCOC(=O)N1C(=O)[C@@]2(c3cc(C#CCNC(N)=O)ccc31)[C@H](c1ccc(O)cc1)N1[C@H](c3ccccc3)[C@H](c3ccccc3)OC(=O)[C@H]1[C@@H]2C(=O)N1CCN(c2ncccn2)CC1	Met
C=C[C@@H](C)[C@@H](OC(=O)Nc1ccc(SC)cc1)c1ccc(OCCO)cc1	Not met
Nc1cc(Br)ccc1C(=O)O	Met
CCOC(=O)C1=C[C@@H](C(C)(C)C)N(S(=O)(=O)c2ccc(C)cc2)[C@H]1c1ccc(C)cc1	Met
COc1ccc([Si](C)(C)[C@@H]2[C@@H](CC(=O)N3Cc4ccccc4C[C@H]3CO)O[C@]3(C(=O)N(c4ccccc4)c4ccccc43)[C@H]2C)cc1	Met
O=C1C2C=CC(C(O)C=Cc3ccc([N+](=O)[O-])cc3)N(Nc3ccccc3)C2C(=O)N1c1ccccc1 (stereo unspecified)	Not met
O=C1C[C@@](C(=O)NCc2ccccc2)(c2ccc([N+](=O)[O-])cc2)[C@@H](c2ccc(CO)cc2I)N1CC12CC3CC(CC(C3)C1)C2	Not met
C=CCC(OC(C)=O)[C@@H]1[C@@H](N(Cc2cccc3ccccc23)C(=O)c2ccc(-c3ccccc3)cc2)c2cc(OCCCO)ccc2N1C(=O)c1ccc(-c2ccccc2)cc1 (stereo partly specified)	Met
CC(C)CNC(=O)[C@@]1(C)c2ccccc2C(=O)N(Cc2cc(C(F)(F)F)cc(C(F)(F)F)c2)[C@H]1c1ccc(CO)cc1	Met
CN(C)CCCCCCNC(=O)[C@@H]1C[C@@H]2C(=O)N[C@@H](CCCCN)C(=O)N2[C@@H]1c1ccc(O)cc1	Met
CC(C)OC(=O)CC(=O)CC(O)c1ccc([N+](=O)[O-])cc1 (stereo unspecified)	Met
COc1cc2c(cc1O)C(c1cccs1)N(Cc1sc3ccccc3c1Cl)CC2 (stereo unspecified)	Not met
[N-]=[N+]=NCc1ccccc1C[C@]1(C(=O)N2CCOCC2)COC(c2ccc(OCCCO)cc2)=N1	Not met
CCOC(=O)C1=CCN(S(=O)(=O)c2ccc(C)cc2)C1c1ccccc1 (stereo unspecified)	Not met
COCC(=C=CC[C@H](O)c1cccc(OCCO)c1)C[C@H](O)COCc1ccccc1	Not met
COC(=O)[C@@]1(Cc2ccc(OC)cc2)[C@H]2c3cc(C(=O)N4CCCC4)n(Cc4ccc(OC(F)(F)F)cc4)c3C[C@H]2CN1C(=O)c1ccccc1	Met
